The values you see were collected from patent US20220249475A1.

Test system: Dendritic cells + T cells + CD3/CD28 beads
protocol notes: CRS assay: dendritic cells + T cells + CD3/CD28 beads, IL2 ELISA
Format: cell-based
experimental setup: Homo sapiens; same culture; IL-2 only produced by the activated T cells
Record form. Attribute: EC50. Fill in for each entry.

Record CCO[C@H]1CC[C@H](n2cc(NC(=O)c3csc(-c4cn[nH]c4)n3)c(-c3nc(F)ccc3F)n2)CC1 [VI-176] , field EC50: 6.9 µM

Record COc1cc(Nc2ncc(C)c(Nc3ccc4oc(=O)[nH]c4c3)n2)cc(C)c1F [Compound I-432] , field EC50: 4.41 µM
